target: ABCB1/MDR1/Pgp (Homo sapiens, UniProt P08183); assay: biochemical; conditions: Estimated Transporter Inhibition IC50, ABCB1 vesicular assay, ATP-dependent NMQ uptake, HEK-293/ABCB1 inverted membrane vesicles; '-' = no inhibition
Sequence (P08183 whole entry): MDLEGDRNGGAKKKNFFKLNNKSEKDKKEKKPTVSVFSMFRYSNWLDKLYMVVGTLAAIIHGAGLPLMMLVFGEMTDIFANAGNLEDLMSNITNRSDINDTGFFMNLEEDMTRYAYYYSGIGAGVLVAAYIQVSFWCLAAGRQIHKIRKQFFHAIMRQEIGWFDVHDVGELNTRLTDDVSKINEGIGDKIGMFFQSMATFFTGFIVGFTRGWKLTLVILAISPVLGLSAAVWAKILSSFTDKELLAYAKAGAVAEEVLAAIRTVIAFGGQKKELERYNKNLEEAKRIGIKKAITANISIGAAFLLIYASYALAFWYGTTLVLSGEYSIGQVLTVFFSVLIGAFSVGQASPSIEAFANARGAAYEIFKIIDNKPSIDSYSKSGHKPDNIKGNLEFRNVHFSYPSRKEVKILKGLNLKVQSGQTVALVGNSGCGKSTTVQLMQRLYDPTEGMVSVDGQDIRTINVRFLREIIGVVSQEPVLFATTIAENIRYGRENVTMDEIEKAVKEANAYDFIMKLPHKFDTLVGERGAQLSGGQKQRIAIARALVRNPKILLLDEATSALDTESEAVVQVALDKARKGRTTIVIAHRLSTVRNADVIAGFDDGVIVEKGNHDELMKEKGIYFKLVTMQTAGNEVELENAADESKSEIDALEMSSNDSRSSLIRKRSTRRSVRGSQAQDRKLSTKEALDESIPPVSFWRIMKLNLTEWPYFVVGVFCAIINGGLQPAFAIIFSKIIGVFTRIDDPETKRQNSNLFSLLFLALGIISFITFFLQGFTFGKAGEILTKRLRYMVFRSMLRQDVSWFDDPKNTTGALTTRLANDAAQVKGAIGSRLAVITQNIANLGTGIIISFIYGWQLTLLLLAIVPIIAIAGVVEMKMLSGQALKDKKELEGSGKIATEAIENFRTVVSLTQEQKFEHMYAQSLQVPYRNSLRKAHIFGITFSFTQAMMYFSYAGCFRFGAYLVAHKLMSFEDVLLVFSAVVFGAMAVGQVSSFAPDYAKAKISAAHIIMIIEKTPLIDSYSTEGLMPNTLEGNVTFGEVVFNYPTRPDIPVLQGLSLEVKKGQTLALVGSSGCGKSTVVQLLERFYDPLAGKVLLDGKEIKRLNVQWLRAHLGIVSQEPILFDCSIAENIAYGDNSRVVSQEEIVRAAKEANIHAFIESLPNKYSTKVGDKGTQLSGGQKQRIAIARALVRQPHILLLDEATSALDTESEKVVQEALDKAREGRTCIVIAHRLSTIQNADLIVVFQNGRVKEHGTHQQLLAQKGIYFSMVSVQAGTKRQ
pIC50: −log10 of the molar value.
READOUT TYPE: pIC50

Notebook entry, ABCB1/MDR1/Pgp (Homo sapiens, UniProt P08183) assay: pIC50 of CCC(CC)COC(=O)[C@H](C)N[P@](=O)(OC[C@H]1O[C@@](C#N)(c2ccc3c(N)ncnn23)[C@H](O)[C@@H]1O)Oc1ccccc1 = ?
< 4.70

* * *

biological target: ABCB1/MDR1/Pgp (Homo sapiens); experiment: in vitro; details: Estimated Transporter Inhibition IC50, ABCB1 vesicular assay, ATP-dependent NMQ uptake, HEK-293/ABCB1 inverted membrane vesicles, '-' = no inhibition
READOUT TYPE: IC50

So what does the record say about IC50 for CCN(CC)CCCC(C)Nc1ccnc2cc(Cl)ccc12 (stereo not shown) ?
> 50 µM

* * *

Target: ABCB1/MDR1/Pgp (Homo sapiens, UniProt P08183)
Assay: in vitro
Conditions: human, intact PLB-985 cells expressing ABCB1, probe Calcein-AM, 0.25 µM
Description: For the ABC transporter assays, we used both cell-based and membrane-based functional assays. […] The respective transport activities were assayed by measuring the cellular fluorescence of the respective transported substrates Phengreen (ABCG2) and Calcein (ABCB1 and ABCC1). […] The cells were kept on ice until the flow cytometry measurements. […] The PhenGreen (PG) or Calcein signal was detected in the BL1 channel (emission filter: 530/30 nm). […]
READOUT TYPE: IC50 at 40 min

Notebook entry, ABCB1/MDR1/Pgp (Homo sapiens, UniProt P08183) assay: IC50 at 40 min of NC(=O)c1nc(F)c[nH]c1=O = ?
> 50 µM

* * *

molecular target: ABCG2/BCRP (Homo sapiens); experiment: biochemical
pIC50: −log10 of the molar value.
READOUT TYPE: pIC50

So what does the record say about pIC50 for CCC(CC)COC(=O)[C@H](C)N[P@](=O)(OC[C@H]1O[C@@](C#N)(c2ccc3c(N)ncnn23)[C@H](O)[C@@H]1O)Oc1ccccc1 ?
< 4.70

* * *

Recorded IC50 at 10 min for the following compounds
target: ABCG2/BCRP (Homo sapiens, UniProt Q9UNQ0); test: in vitro; conditions: human
Sequence (Q9UNQ0 whole entry): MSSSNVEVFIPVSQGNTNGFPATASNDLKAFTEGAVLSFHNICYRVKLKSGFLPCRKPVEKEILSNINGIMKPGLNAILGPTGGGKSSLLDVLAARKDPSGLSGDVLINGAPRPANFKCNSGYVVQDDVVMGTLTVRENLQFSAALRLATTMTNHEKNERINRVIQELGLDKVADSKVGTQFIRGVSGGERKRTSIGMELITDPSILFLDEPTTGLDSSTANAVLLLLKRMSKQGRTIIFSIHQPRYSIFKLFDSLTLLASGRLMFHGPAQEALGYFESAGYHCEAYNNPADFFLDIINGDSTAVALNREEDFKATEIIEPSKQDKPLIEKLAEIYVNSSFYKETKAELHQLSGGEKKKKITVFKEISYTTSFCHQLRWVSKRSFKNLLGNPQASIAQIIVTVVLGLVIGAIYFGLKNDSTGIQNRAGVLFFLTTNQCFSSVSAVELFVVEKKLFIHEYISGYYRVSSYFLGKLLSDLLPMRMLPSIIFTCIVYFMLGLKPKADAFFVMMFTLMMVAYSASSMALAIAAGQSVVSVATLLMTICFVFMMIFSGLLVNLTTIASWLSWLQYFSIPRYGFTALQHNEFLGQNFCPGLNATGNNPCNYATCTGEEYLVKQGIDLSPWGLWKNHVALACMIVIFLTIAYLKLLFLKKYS

For orientation, consider the following solved cases.
CCC(CC)COC(=O)[C@H](C)N[P@](=O)(OC[C@H]1O[C@@](C#N)(c2ccc3c(N)ncnn23)[C@H](O)[C@@H]1O)Oc1ccccc1 [remdesivir]    > 50 µM
CCN(CC)CCCC(C)Nc1ccnc2cc(Cl)ccc12 (stereo not drawn) [chloroquine]    > 50 µM

Now consider a different compound.
So what does the record say about IC50 at 10 min for CCN(CCO)CCCC(C)Nc1ccnc2cc(Cl)ccc12 (stereo not drawn) [hydroxychloroquine] ?
> 50 µM

* * *

biological target: ABCB1/MDR1/Pgp (Homo sapiens, UniProt P08183); assay: in vitro; settings: human
READOUT TYPE: IC50 at 40 min

CCN(CC)CCCC(C)Nc1ccnc2cc(Cl)ccc12 (stereo not drawn) [chloroquine]    > 50 µM

Notebook entry, ABCB1/MDR1/Pgp (Homo sapiens, UniProt P08183) assay: IC50 at 40 min of CCC(CC)COC(=O)[C@H](C)N[P@](=O)(OC[C@H]1O[C@@](C#N)(c2ccc3c(N)ncnn23)[C@H](O)[C@@H]1O)Oc1ccccc1 [remdesivir] = ?
> 50 µM

Would you kindly repeat that for CCN(CCO)CCCC(C)Nc1ccnc2cc(Cl)ccc12 (stereo not drawn) [hydroxychloroquine] ?
> 50 µM
